These measurements were taken from patent US20220380471A1.

Please respond with reported ELISA signal for every item in the list.
Target: PD-L1
Sequence (Q9NZQ7 whole entry): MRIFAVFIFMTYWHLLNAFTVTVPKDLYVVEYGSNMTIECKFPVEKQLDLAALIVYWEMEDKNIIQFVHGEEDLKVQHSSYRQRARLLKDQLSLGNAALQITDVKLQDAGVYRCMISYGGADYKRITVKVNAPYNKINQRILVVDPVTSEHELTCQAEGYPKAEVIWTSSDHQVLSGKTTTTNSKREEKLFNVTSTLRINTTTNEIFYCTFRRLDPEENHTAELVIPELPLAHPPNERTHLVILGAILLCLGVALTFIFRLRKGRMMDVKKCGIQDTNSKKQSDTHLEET
Assay: ELISA, purified VHH, cross-reaction
One number for each entry.

Take a look at these entries with their results.
>  <binder>
RWD5 (VHH, Camel VHH; tag not described; also called RWDS [sic]; camel antibody RWD5) VHH: AVQLVESGGGLVQPGGSLSVSCAASGFTFSVYWFYWVRQAPRQGLEWVSTIASNGSTYYSDSVKGRFTISRDNAKNTVYLQMNSLKPEDTAVYYCVSDPDYYSDYEREYKFWAQGTQVTVSS

>  <ELISA signal>
0.0471

$$$$
>  <binder>
RWD9 (VHH, Camel VHH; tag not described; also called camel antibody RWD9) VHH: EVQLVESGGGLVQPGGSLSVSCAASGFTFSVYWFYWVRQAPRQGLEWVSTIASNGSTYYSDSVKGRFTISRDNAKNTVYLQMNSLKPEDTAVYYCVSDPDYYSDYERAYKFWAQGTQVTVSS

>  <ELISA signal>
0.0438

$$$$
>  <binder>
RWG4 (VHH, Camel VHH; tag not described; also called camel antibody RWG4) VHH: QVQLVQSGGGLVQPGGSLRLSCAASGFTFSVYWFYWVRQAPRQGLEWVSTIASNGSTYYSDSVKGRFTISRDNAKNTVYLQMNSLKPEDTAVYYCVSDPDYYSDYERAYKFWAQGTQVTVSS

>  <ELISA signal>
0.0614

$$$$

Suppose we examine the binder RWH1 (VHH, Camel VHH; tag not described; also called camel antibody RWH1) VHH: AVQLVESGGGSVQAGGSLRLSCAASGMNLDNYVRGWLRQAPGSKCEFVSIIRRDGTTDYGDSVKGRFTISRDNAKNTVYLQMNSLKPDDTAVYYCAAIVVPRAAEYACDGLPYRGQGTQVTVSS ; what ELISA signal value has been reported?
0.0753
